- Subject of test: Lysophosphatidic acid receptor 1 (Homo sapiens)
- Sequence (Q92633 whole entry): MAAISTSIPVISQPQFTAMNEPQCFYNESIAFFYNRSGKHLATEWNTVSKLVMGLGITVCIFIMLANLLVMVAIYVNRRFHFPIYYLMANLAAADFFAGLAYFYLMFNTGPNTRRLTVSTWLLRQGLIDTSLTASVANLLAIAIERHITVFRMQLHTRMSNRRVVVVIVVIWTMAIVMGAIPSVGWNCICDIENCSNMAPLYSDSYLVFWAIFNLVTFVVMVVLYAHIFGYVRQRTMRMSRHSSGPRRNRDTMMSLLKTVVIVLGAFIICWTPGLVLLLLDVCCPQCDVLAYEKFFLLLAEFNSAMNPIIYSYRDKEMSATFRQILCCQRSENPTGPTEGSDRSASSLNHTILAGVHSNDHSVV
- Procedure details: Antagonist activity at human LPA1 receptor expressed in HEK293 cells assessed as beta-arrestin2 effector recruitment incubated for 10 mins by BRET assay
- Type: functional, cell-based
Experimental readout: pEC50
FYI, pEC50 means -log10 of a concentration in mol per litre.

input: Consider the compound shown here: "C[C@@H](OC(=O)Nc1c(-c2ccc(NC(=O)c3cnc(C(F)(F)F)nc3)cn2)nnn1C)c1cc(F)cnc1F" What is its recorded pEC50?
output: 6.87

----------
- Subject of test: Solute carrier organic anion transporter family member 1B1 (Homo sapiens, UniProt Q9Y6L6)
- Sequence (Q9Y6L6 whole entry): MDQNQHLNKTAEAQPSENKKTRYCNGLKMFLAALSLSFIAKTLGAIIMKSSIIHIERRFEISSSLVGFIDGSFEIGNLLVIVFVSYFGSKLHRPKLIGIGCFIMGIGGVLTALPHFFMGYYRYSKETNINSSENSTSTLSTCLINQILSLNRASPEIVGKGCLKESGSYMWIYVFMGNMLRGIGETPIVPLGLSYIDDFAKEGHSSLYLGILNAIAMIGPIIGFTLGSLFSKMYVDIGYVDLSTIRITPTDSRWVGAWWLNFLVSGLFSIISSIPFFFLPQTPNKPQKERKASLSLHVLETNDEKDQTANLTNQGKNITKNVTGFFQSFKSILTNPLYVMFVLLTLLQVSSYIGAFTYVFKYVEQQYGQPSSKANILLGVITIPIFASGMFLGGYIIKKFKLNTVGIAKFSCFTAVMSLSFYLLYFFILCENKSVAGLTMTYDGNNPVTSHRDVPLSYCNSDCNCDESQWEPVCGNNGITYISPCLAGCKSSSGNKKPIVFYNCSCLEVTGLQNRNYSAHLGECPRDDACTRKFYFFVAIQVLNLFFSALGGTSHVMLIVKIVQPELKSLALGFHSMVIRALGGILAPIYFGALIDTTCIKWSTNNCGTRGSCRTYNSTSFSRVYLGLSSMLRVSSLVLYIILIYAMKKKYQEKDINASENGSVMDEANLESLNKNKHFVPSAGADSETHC
- Procedure details: Inhibition of OATPB1P1 in human hepatocyte by LC-MS analysis
Experimental readout: pIC50
FYI, pIC50 means -log10 of a concentration in mol per litre.

input: Consider the compound shown here: "C[C@@H](OC(=O)Nc1c(-c2ccc(NC(=O)c3cnc(C(F)(F)F)nc3)cn2)nnn1C)c1cc(F)cnc1F" What is its recorded pIC50?
output: 4.89

----------
- Procedure details: Apparent permeability from basolateral to apical side in human Caco-2 cells at 10 uM
- Format: ADME, cell-based
Experimental readout: Papp B→A at 10 µM (×10⁻⁶ cm/s)
Give a bare numeral; the unit ×10⁻⁶ cm/s is implied.

input: Consider the compound shown here: "C[C@@H](OC(=O)Nc1c(-c2ccc(NC(=O)c3cnc(C(F)(F)F)nc3)cn2)nnn1C)c1cc(F)cnc1F" What is its recorded Papp B→A at 10 µM?
output: 17

----------
Hi there, I'd appreciate the recorded logD for every entry that follows.
- Procedure details: Lipophilicity, logD of compound at pH 7.4
- Format: physicochemical
- Condition notes: buffer
Reply briefly: the number, and no unit.

input: Consider the compound shown here: "C[C@@H](OC(=O)Nc1c(-c2ccc(N)cn2)nnn1C)c1cc(F)cnc1F.Cl" What is its recorded logD?
output: 1.3

input: Consider the compound shown here: "C[C@@H](OC(=O)Nc1c(-c2ccc(NS(=O)(=O)C(C)(C)C)cc2)nnn1C)c1ccccc1Cl" What is its recorded logD?
output: 3

input: Consider the compound shown here: "Cc1nc(-c2nnn(C)c2NC(=O)O[C@@H](c2ccccc2)C(F)(F)F)ccc1NS(C)(=O)=O" What is its recorded logD?
output: 2.5

input: Consider the compound shown here: "CC(=O)Nc1ccc(-c2nnn(C)c2NC(=O)O[C@H](C)c2cc(F)cnc2F)nc1" What is its recorded logD?
output: 1.3

input: Consider the compound shown here: "C[C@@H](OC(=O)Nc1c(-c2ccc(N(C)S(C)(=O)=O)cc2)nnn1C)c1ccccc1Cl" What is its recorded logD?
output: 2.7

input: Consider the compound shown here: "C[C@@H](OC(=O)Nc1c(-c2ccc(S(N)(=O)=O)cc2)nnn1C)c1ccccc1Cl" What is its recorded logD?
output: 2.2

input: Consider the compound shown here: "C[C@@H](OC(=O)Nc1c(-c2ccc(NC(=O)[C@@H]3CC3(F)F)cn2)nnn1C)c1cc(F)cnc1F" What is its recorded logD?
output: 2.2

input: Consider the compound shown here: "Cc1nc(-c2nnn(C)c2NC(=O)O[C@H](C)c2cc(F)cnc2Cl)ccc1NS(C)(=O)=O" What is its recorded logD?
output: 1.8

input: Consider the compound shown here: "C[C@@H](OC(=O)Nc1c(-c2ccc(NS(C)(=O)=O)cn2)nnn1C)c1cc(F)ccc1F" What is its recorded logD?
output: 2.1

input: Consider the compound shown here: "C[C@@H](OC(=O)Nc1c(-c2ccc(NC(=O)C3CC(F)(F)C3)cn2)nnn1C)c1cc(F)cnc1F" What is its recorded logD?
output: 2.4

input: Consider the compound shown here: "C[C@@H](OC(=O)Nc1c(-c2ccc(NC(=O)c3ccc(C(F)(F)F)nc3)cn2)nnn1C)c1cc(F)cnc1F" What is its recorded logD?
output: 2.7

input: Consider the compound shown here: "C[C@@H](OC(=O)Nc1c(-c2ccc(NS(C)(=O)=O)cn2)nnn1C)c1cc(F)cnc1Cl" What is its recorded logD?
output: 1.7

input: Consider the compound shown here: "Cc1nc(-c2nnn(C)c2NC(=O)O[C@H](C)c2cccnc2Cl)ccc1NS(C)(=O)=O" What is its recorded logD?
output: 1.5

input: Consider the compound shown here: "C[C@@H](OC(=O)Nc1c(-c2ccc(O)cc2)nnn1C)c1ccccc1Cl" What is its recorded logD?
output: 2.5

input: Consider the compound shown here: "Cc1nc(-c2nnn(C)c2NC(=O)O[C@H](C)c2cccc(F)c2)ccc1NS(C)(=O)=O" What is its recorded logD?
output: 2.2

input: Consider the compound shown here: "Cc1nc(-c2nnn(C)c2NC(=O)O[C@H](CF)c2ccccc2)ccc1NS(C)(=O)=O" What is its recorded logD?
output: 1.9

input: Consider the compound shown here: "C[C@@H](OC(=O)Nc1c(-c2ccc(NC(=O)C3(C(F)F)CC3)cn2)nnn1C)c1cc(F)cnc1F" What is its recorded logD?
output: 2.4

input: Consider the compound shown here: "CNS(=O)(=O)c1ccc(-c2nnn(C)c2NC(=O)O[C@H](C)c2ccccc2Cl)cc1" What is its recorded logD?
output: 2.6

input: Consider the compound shown here: "C[C@@H](OC(=O)Nc1c(-c2ccc(NS(C)(=O)=O)cn2)nnn1C)c1cccnc1Cl" What is its recorded logD?
output: 1.3

input: Consider the compound shown here: "C[C@@H](OC(=O)Nc1c(-c2ccc(NS(C)(=O)=O)cn2)nnn1C)c1ccccc1" What is its recorded logD?
output: 1.9

input: Consider the compound shown here: "Cc1nc(-c2nnn(C)c2NC(=O)O[C@H](C)c2ccccc2)ccc1NS(C)(=O)=O" What is its recorded logD?
output: 2.2

input: Consider the compound shown here: "C[C@@H](OC(=O)Nc1c(-c2ccc(NS(C)(=O)=O)cn2)nnn1C)c1cc(F)cnc1F" What is its recorded logD?
output: 1.5

input: Consider the compound shown here: "C[C@@H](OC(=O)Nc1c(-c2ccc(NC(=O)C34CC(C#N)(C3)C4)cn2)nnn1C)c1cc(F)cnc1F" What is its recorded logD?
output: 2

input: Consider the compound shown here: "CC(=O)N(C)c1ccc(-c2nnn(C)c2NC(=O)O[C@H](C)c2ccccc2Cl)cc1" What is its recorded logD?
output: 2.2

input: Consider the compound shown here: "C[C@@H](OC(=O)Nc1c(-c2ccc(NS(C)(=O)=O)cn2)nnn1C)c1cccc(F)c1" What is its recorded logD?
output: 1.9
